The entries that follow carry pKi values tested on Serine protease 1 (Homo sapiens, UniProt P07477), drawn from several published reports.
Sequence (P07477 whole entry): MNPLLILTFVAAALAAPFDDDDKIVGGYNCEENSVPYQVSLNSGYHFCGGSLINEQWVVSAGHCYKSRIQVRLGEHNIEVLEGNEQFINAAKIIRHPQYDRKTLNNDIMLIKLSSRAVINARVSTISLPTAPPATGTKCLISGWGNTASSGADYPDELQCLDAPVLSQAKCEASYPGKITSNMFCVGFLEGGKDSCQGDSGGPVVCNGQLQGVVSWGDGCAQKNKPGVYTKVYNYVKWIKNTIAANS
The meaning of pKi here: minus log10 of the concentration in molar units.

Solved entries:
compound	pKi
COc1ccc(CNC(=O)[C@H](NC(=O)c2cccc(C(=N)N)c2)c2ccccc2)cc1	5.26
CSCc1nc(Cc2ccccc2)n(CC(=O)N[C@@H](CCCCN)B2O[C@@H]3C[C@@H]4C[C@@H](C4(C)C)[C@]3(C)O2)n1	8.72

Let us move to another entry and its pKi.
Value wanted: pKi (Serine protease 1 (Homo sapiens, UniProt P07477)) of entry CCSCC1(C(=O)Nc2ncc(-c3ccccc3S(N)(=O)=O)cn2)CC(c2cccc(C(=N)N)c2)=NO1 (centres undefined) 6.46

* * *

Here, compounds appear alongside Ki reported for Serine protease 1 (Homo sapiens, UniProt P07477) in the literature.
Write the value in nM as a bare number.

The following compounds have reported results that may help.
compound	assayed.system	Ki / nM
N=C(N)N1CCC(CCC(=O)N2CCN(C(=O)O[C@H]3CCC[C@@H](OC(=O)N4CCN(C(=O)CCC5CCN(C(=N)N)CC5)CC4)CCC3)CC2)CC1	Serine protease 1 (Homo sapiens, UniProt P07477)	171000
O=C1Cn2c(Cl)cnc(c2=O)N[C@@H](Cc2ccccc2)NCCCCCCOc2ccc(Cl)cc2CN1	Serine protease 1 (Homo sapiens, UniProt P07477)	240
N=C(N)N1CCC(OCC[C@@H]2CCCCN2C(=O)[C@H](CC(=O)O)NCc2ccccc2)CC1	Serine protease 1 (Homo sapiens, UniProt P07477)	9200
Cc1cc(N)nc(C)c1CNC(=O)Cn1c(C)cnc(NCCc2ccccc2)c1=O	Serine protease 1 (Homo sapiens, UniProt P07477)	1000
N=C(N)c1cccc(C(=O)N[C@@H](Cc2ccccc2)C(=O)NCC2CCC(CN)CC2)c1 (some centres undefined)	Serine protease 1 (Homo sapiens, UniProt P07477)	12600

Item under review: N=C(N)c1ccc(C2=NOC(CC(=O)Nc3cccc(C(=N)N)c3)C2)cc1 (centres undefined) . Reported Ki? 510

Consider the compound [H]/N=C(/N)c1ccc2cc(C(=O)Nc3ccccc3)cc(Nc3ncccn3)c2c1 and give its measured Ki. 40

What measured Ki goes with NCCCC[C@H](NC(=O)CN(CCc1ccccc1)C(=O)CCc1ccccc1)B(O)O ? 2.5

* * *

Here is a set of compounds with reported pKi for Serine protease 1 (Homo sapiens), compiled from the literature.
pKi: −log10 of the molar value.
Classification field: enter criterion met for pKi values not below 6, criterion not met for values below it.

Take a look at these entries with their results.
compound	category
COCC1(C(=O)Nc2ncc(-c3ccccc3S(N)(=O)=O)cn2)CC(c2cccc(C(=N)N)c2)=NO1 (centres undefined)	criterion met
N=C(N)c1ccc2[nH]cc(CC(=O)Nc3ccc(-c4ccccc4S(N)(=O)=O)cc3I)c2c1	criterion met
Cl.N=C(N)c1cccc(N2CCCCN(C3CCN(S(=O)(=O)c4cccs4)CC3)C2=O)c1	criterion met
N=C(N)c1ccc(NC(=O)C2(CC(=O)O)CC(c3cccc(C(=N)N)c3)=NO2)cc1 (centres undefined)	criterion not met

Would you say CC1(C)[C@@H]2C[C@H]3OB([C@H](CCCCN)NC(=O)Cn4nc(CS(C)(=O)=O)nc4Cc4ccccc4)O[C@@]3(C)[C@H]1C2 shows pKi at minimum 6? criterion met

Tell me whether pKi is at least 6 here: COc1ccc2cc(S(=O)(=O)NN(Cc3cccc(C(=N)NO)c3)C(=O)N3CCCCCC3)ccc2c1 criterion not met

Given the entry Cc1cnc(NCCc2ccccc2)c(=O)n1CC(=O)NCc1ccc2[nH]cnc2c1 , answer whether its pKi meets or surpasses 6. criterion not met

* * *

Collected set of pKi measured with Serine protease 1 (Homo sapiens, UniProt P07477) across studies.
pKi: −log10 of the molar value.
Lab note: compare pKi against 7. Equal or greater, write class 1. Smaller, write class 0.

Consider the worked cases shown below.
molecule	category
CN(Cc1ccc(CN)cc1)C(=O)CCC(=O)NCc1ccc(CNC(=O)CCC(=O)N(C)Cc2ccc(CN)cc2)cc1	class 0
CSc1sc(C(=N)N)cc1-c1nc(-c2cccc(O)c2)cs1	class 0
CCCS(=O)(=O)NCC1(C(=O)Nc2ccc(-c3ccccc3S(N)(=O)=O)cn2)CC(c2ccc(Cl)c(N)c2)=NO1 (racemic)	class 0
N=C(N)Nc1ccc(CNC(=O)N2CCN(C(=O)O[C@H]3CCC[C@@H](OC(=O)N4CCN(C(=O)CCc5cnc(N)nc5)CC4)CCC3)CC2)cc1	class 0
N=C(N)Nc1ccc(CNC(=O)N2CCN(C(=O)O[C@H]3CCC[C@@H](OC(=O)N4CCN(C(=O)NCc5ccc(N)cc5)CC4)CCC3)CC2)cc1	class 0

API: above_or_equal(metric=pKi, cutoff=7) for item N=C(N)c1ccc(O)c(CN2CC[C@H](NS(=O)(=O)c3cc4nc(Cl)ccc4s3)C2=O)c1 class 0

Reported pKi reaches at least 7 for Nc1ncnc2cc(CN3CCN(S(=O)(=O)c4nc5ccc(Cl)cc5[nH]4)CC3=O)ccc12 ? class 0

Is pKi for CC1(C)[C@@H]2C[C@H]3OB([C@H](CCCCN)NC(=O)Cn4nc(CNC=O)nc4Cc4ccccc4)O[C@@]3(C)[C@H]1C2 at or above 7? class 1

# bool: pKi of O=C1CN(S(=O)(=O)c2cc3ccc(Cl)cc3s2)CCN1Cc1cc2c[nH]ccc-2n1 >= 7 class 0

* * *

Below are Ki values for Serine protease 1 (Homo sapiens) collected from several publications.
Give just the number in nM; leave the unit off.

Sample records with Ki:
compound	unit.of.measure	Ki
N=C(N)c1cccc(C(=O)NCC(=O)NCC2CCC(CN)CC2)c1 (stereo not given)	nM	23000
CC(=O)N[C@H](Cc1ccccc1)C(=O)N1CCC[C@H]1C(=O)N[C@@H](CCCN=C(N)N)B(O)O	nM	0.045

From here, focus on the item given below.
Which measured Ki value corresponds to COC(=O)[C@H](Cc1cccc(C(=N)N)c1)[C@@H](C)NC(=O)c1ccc(-c2cccc[n+]2C)cc1 ? 36

* * *

Field: pKi. System: Serine protease 1 (Homo sapiens). Provenance: assorted publications.
FYI, pKi means -log10 of a concentration in mol per litre.

Solved cases below.
compound	pKi
CC1(C)OB([C@H](CCCNC(=N)N)NC(=O)c2ccccc2)OC1(C)C	7.15
CC(C)(C)OC(=O)Nc1cccc(-c2cccc(C(=O)N[C@@H](CCCN=C(N)N)B3O[C@@H]4CC5CC(C5(C)C)[C@]4(C)O3)c2)c1 (stereo partly drawn)	7.46
Nc1cc[n+](Cc2ccc(OCc3ccccc3)cc2)cc1	4.11
N=C(N)c1ccc2[nH]cc(CC(=O)Nc3ccc(-c4ccccc4S(N)(=O)=O)cc3)c2c1	6.80

Hello, I am looking for reported pKi with Serine protease 1 (Homo sapiens) for N=C(N)c1cccc(C2=NOC(Cn3cnnn3)(C(=O)Nc3ccc(-c4ccccc4S(N)(=O)=O)cn3)C2)c1 (stereo not drawn) . Could you help? 7.51

* * *

Literature-derived Ki for UniProt:P07477 follows.
# Fulfilled = Ki below 4 µM (exclusive); Not fulfilled = Ki at/above 4 µM

compound	category
NCCc1ccc(CCNC(=O)N2CCN(C(=O)O[C@H]3CCC[C@@H](OC(=O)N4CCN(C(=O)NCCc5ccc(CCN)cc5)CC4)CCC3)CC2)cc1	Not fulfilled
Cc1cnc(NCCc2ccccc2)c(=O)n1CC(=O)NCc1cc2cc[nH]c2cn1	Not fulfilled

Would you kindly verify if Ki of N/C(=N\O)c1cccc(CN(NS(=O)(=O)c2ccc3ccccc3c2)C(=O)N2CCCCCC2)c1 is strictly less than 4 µM? Not fulfilled

Field: below-cutoff. Rule: recorded Ki strictly less than 4 µM. Subject: CCOc1ccc(CNc2ccc(C(=N)N)cc2)cc1OCC Fulfilled

Does this compound meet the criterion Ki < 4 µM? Cc1cc(-c2ccccc2S(=O)(=O)NC(C)(C)C)ccc1C(=O)N[C@@H](CCCN=C(N)N)B1O[C@@H]2CC3CC(C3(C)C)[C@]2(C)O1 (stereo partly drawn) Fulfilled

* * *

Compiled record: Ki values for Serine protease 1 (Homo sapiens, UniProt P07477) across several sources.
Quick rule for you: Ki under 2 µM gets Fulfilled, anything else gets Not fulfilled.

Please review the entries below; each comes with its answer.
compound	category
N=C(N)c1ccc(CCC(=O)N2CCN(C(=O)O[C@H]3CCC[C@@H](OC(=O)N4CCN(C(=O)CCc5ccc(C(=N)N)cc5)CC4)CCC3)CC2)cc1	Not fulfilled
N[C@H]1CC[C@H](C(NC(=O)[C@@H]2CC[C@H]3CN(S(=O)(=O)Cc4ccccc4)CC(=O)N32)C(=O)C(=O)O)CC1 (stereo partly specified)	Not fulfilled
N=C(N)c1cccc(N2CCCCN(C3CCN(S(=O)(=O)Cc4ccccc4)CC3)C2=O)c1.O=C(O)C(F)(F)F	Fulfilled

Regarding Nc1cc(C2=NOC(CNS(=O)(=O)c3ccsc3)(C(=O)Nc3ccc(-c4ccccc4S(N)(=O)=O)cn3)C2)ccc1Cl (racemic) , kindly confirm whether its Ki is beneath 2 µM. Not fulfilled

Hi there! Is Ki for N=C(N)N1CCC(CNC(=O)N2CCN(C(=O)O[C@H]3CCC[C@@H](OC(=O)N4CCN(C(=O)NCC5CCN(C(=N)N)CC5)CC4)CCC3)CC2)CC1 below 2 µM, do you know? Not fulfilled

Strictly below 2 µM: is that where Ki of N=C(N)c1cccc(C2=NOC(Cc3ccccc3)(C(=O)Nc3ccc(-c4ccccc4S(N)(=O)=O)cc3)C2)c1 (stereo unspecified) sits? Fulfilled
